tested on: CFA-induced paw radiant heat hypersensitivity; experiment: CFA-induced paw radiant heat hypersensitivity; format: in vivo, rat; conditions: Rattus norvegicus, po; 30 mg/kg p.o., HPβCD, group mean values, last time point 180 or 300 min; read-out: CFA thermal hypersensitivity Method 1: peak % reversal
inhibition in vivo at 30 mg/kg overview

- compound: "O=C(c1ccc2c(cnn2-c2ccccc2)c1)N1CC(N2CCN(C(=O)c3nccs3)CC2)C1 [Cpd 1360]"
  reading unit: "%"
  inhibition in vivo at 30 mg/kg: 40.5
- compound: "O=C(c1ccc2c(ccn2-c2ccc(F)cc2F)c1)N1CC(N2CCN(C(=O)c3nccs3)CC2)C1 [Cpd 1364]"
  reading unit: "%"
  inhibition in vivo at 30 mg/kg: 17
- compound: "O=C(c1ccccc1)N1CCN(C2CN(C(=O)c3cc4ccc(C(F)(F)F)cc4s3)C2)CC1 [Cpd 325]"
  reading unit: "%"
  inhibition in vivo at 30 mg/kg: 62.1
- compound: "O=C(c1ccc2c(-c3ccc(C(F)(F)F)cc3)c[nH]c2c1)N1CC(N2CCN(C(=O)c3nccs3)CC2)C1 [Cpd 1340]"
  reading unit: "%"
  inhibition in vivo at 30 mg/kg: 13.1
- compound: "COc1cc(C(=O)N2CC(N3CCN(C(=O)c4cscn4)CC3)C2)ccc1-c1ccc(F)c(Cl)c1 [Cpd 261]"
  reading unit: "%"
  inhibition in vivo at 30 mg/kg: 26.4
- compound: "O=C(c1nccs1)N1CCN(C2CN(C(=O)c3sc4cc(C(F)(F)F)c(F)cc4c3Cl)C2)CC1 [Cpd 900]"
  reading unit: "%"
  inhibition in vivo at 30 mg/kg: 8.5
